Data credit: the supplement of paper PMC11451515

Listing of recorded AUC of viability dose-response curve by entry.
# Tested on: NOMO1
# protocol.notes: AUC of viability dose-response curve (% viability x log10 dose units); higher = less sensitive
# experimental.parameters: RPMI 5 mM glucose + 10% FBS; 48 h
When you answer, write just the number.

[[record]]
molecular_string = "c1ccc2c(Cc3c[nH]c4ccccc34)c[nH]c2c1"
numeric_readout = 434

[[record]]
molecular_string = "C[C@@H](NCCCc1cccc(C(F)(F)F)c1)c1cccc2ccccc12"
numeric_readout = 418

[[record]]
molecular_string = "Cc1c(-c2cccc3c(CCCOc4cccc5ccccc45)c(C(=O)O)n(Cc4cccnc4)c23)c(COc2ccc(N3CCN([S+](=O)([O-])N(C)C)CC3)cc2)nn1C"
numeric_readout = 416


Give the reported AUC of viability dose-response curve for this compound. COC(=O)Nc1nc2cc(C(=O)c3ccc(F)cc3)ccc2[nH]1
426

Answer with the recorded AUC of viability dose-response curve for the compound listed here: ClC1=CC=C2N/C3=N/C(=O)CN3CC2=C1Cl
445

---

# Test system: P12-Ichikawa
# protocol.notes: cell viability relative to DMSO control; higher = less cytotoxic
# experimental.parameters: HPLM + 10% dialyzed FBS; 48 h; 0.0211 µM
reported.property: cell viability
Value and unit, in that order.

Worked examples, 2 compounds total:
[[record]]
molecular_string = "O=C1\\C=C/C=C2/[C@H]3CNC[C@H](C3)CN12"
study_system = "P12-Ichikawa"
result = "109%"

[[record]]
molecular_string = "OC[C@H]1O[C@H](C[C@@H]1O)N2\\C=C(F)/C(=O)NC2=O"
study_system = "P12-Ichikawa"
result = "92.4%"


# ---- query compound ----
Quote cell viability reported for NC[C@@H]1O[C@H](O[C@H]2[C@@H](O)[C@H](O[C@@H]3[C@@H](O)[C@H](N)C[C@H](N)[C@H]3O[C@H]3O[C@H](CN)[C@@H](O)[C@H](O)[C@H]3N)O[C@@H]2CO)[C@H](N)[C@@H](O)[C@@H]1O.O=S(=O)(O)O.O=S(=O)(O)O.O=S(=O)(O)O please.
107%

---

# Tested on: NOMO1
# protocol.notes: cell viability relative to DMSO control; higher = less cytotoxic
# experimental.parameters: RPMI 5 mM glucose + 10% FBS; 48 h; 1.71 µM
reported.property: cell viability (%)
Express the result in % but write the number alone.

Use the examples below as a reference point.
[[record]]
compound = "CC1=C(/C=C/C(C)=C/C=C/C(C)=C\\C(=O)O)C(C)(C)CCC1"
numeric_readout = 84.1

[[record]]
compound = "C[N]1C=C(C2=CC=CC=C12)\\C3=C(\\C(=O)NC3=O)C4=C[N](C5CCN(CC5)CC6=NC=CC=C6)C7=C4C=CC=C7"
numeric_readout = 101

[[record]]
compound = "[O-]C(=O)C/1=N/C(=O)NC(=O)N1"
numeric_readout = 91.3

[[record]]
compound = "Cc1cn([C@H]2C=C[C@@H](CO)O2)c(=O)[nH]c1=O"
numeric_readout = 102

[[record]]
compound = "CCN1\\C=C(\\C(O)=O)C(=O)C2=C1N=C(N3CCNCC3)C(=C2)F"
numeric_readout = 86.4

[[record]]
compound = "Cc1ccccc1C(OCCN(C)C)c1ccccc1 (stereo not given)"
numeric_readout = 125


The record that follows has no cell viability shown yet.
Write down cell viability measured for item COC(=O)Nc1nc2cc(C(=O)c3ccc(F)cc3)ccc2[nH]1
83.8
